- TARGET SYSTEM: T1, PSMA Fab (006 PSMA Fab) (biotinylated (site not given))
- T1 construct: also called Anti-PSMA Fab; anti-PSMA Fab
- PROTOCOL: clonal phage ELISA; biotinylated PSMA Fab on neutravidin plate, blocking buffer alone; anti-M13 HRP detection;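 further: crude clonal phage supernatants added without washing to wells pretreated with blocking buffer with or without PSMA antigen, short incubation, then washed before detecting bound phage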
Where no end group is shown, it is not given here.
PROPERTY LABEL: Phage binding ELISA signal, Anti-PSMA Fab
Respond using a number only.

Q. Read the entry TDKLCRPPWMCELM (cysteine pairing not given here; also: displayed on phage pIII, linker not given here, Clonal phage of the Peptide-180 library, tested as crude phage supernatant; not shown: pIII filament protein of the bacteriophage) [Phage-2634] and write its reported Phage binding ELISA signal, Anti-PSMA Fab.
A. 0.966

Q. Read the entry TVKWCTPPWMCEES (cysteine pairing not given here; also: displayed on phage pIII, linker not given here, Clonal phage of the Peptide-180 library, tested as crude phage supernatant; not shown: pIII filament protein of the bacteriophage) [Phage-2637] and write its reported Phage binding ELISA signal, Anti-PSMA Fab.
A. 0.964

Q. Read the entry VPKWCTPEWMCIIH (cysteine pairing not given here; also: displayed on phage pIII, linker not given here, Clonal phage of the Peptide-180 library, tested as crude phage supernatant; not shown: pIII filament protein of the bacteriophage) [Phage-2640] and write its reported Phage binding ELISA signal, Anti-PSMA Fab.
A. 0.958

Q. Read the entry TWKWCTPAWMCSVM (cysteine pairing not given here; also: displayed on phage as pIII fusion, fusion junction and sequence not given here, Clonal phage of the Peptide-180 library, tested as crude phage supernatant; not shown: pIII filament protein of the bacteriophage) [Phage-2649] and write its reported Phage binding ELISA signal, Anti-PSMA Fab.
A. 0.947

Q. Read the entry VGNWCTPMWMCQAF (cysteine pairing not given here; also: displayed on phage pIII, linker not given here, Clonal phage of the Peptide-180 library, tested as crude phage supernatant; not shown: pIII filament protein of the bacteriophage) [Phage-2639] and write its reported Phage binding ELISA signal, Anti-PSMA Fab.
A. 0.961

Q. Read the entry DDRWCIPTWMCFLD (cysteine pairing not given here; also: displayed on phage pIII, linker not given here, Clonal phage of the Peptide-180 library, tested as crude phage supernatant; not shown: pIII filament protein of the bacteriophage) [Phage-2636] and write its reported Phage binding ELISA signal, Anti-PSMA Fab.
A. 0.965

Q. Read the entry FPKWCTPEWMCSLT (cysteine pairing not given here; also: displayed on phage pIII, linker not given here, Clonal phage of the Peptide-180 library, tested as crude phage supernatant; not shown: pIII filament protein of the bacteriophage) [Phage-2645] and write its reported Phage binding ELISA signal, Anti-PSMA Fab.
A. 0.955

Q. Read the entry EYKWCTPIWMCQGN (cysteine pairing not given here; also: displayed on phage as pIII fusion, fusion junction and sequence not given here, Clonal phage of the Peptide-180 library, tested as crude phage supernatant; not shown: pIII filament protein of the bacteriophage) [Phage-2648] and write its reported Phage binding ELISA signal, Anti-PSMA Fab.
A. 0.95
